target: FIPV M^pro (Feline coronavirus, UniProt Q98VG9); test: FRET-based cleavage assay with purified FIPV Mpro (Ki and IC50 determination); assay type: biochemical, FIPV WSU-79/1146; conditions: 100 nM FIPV Mpro, 40 µM FRET substrate, 37°C; mean ± SEM, n = 3; read-out: FIPV M^pro IC50
Sequence (Q98VG9 2904-3205): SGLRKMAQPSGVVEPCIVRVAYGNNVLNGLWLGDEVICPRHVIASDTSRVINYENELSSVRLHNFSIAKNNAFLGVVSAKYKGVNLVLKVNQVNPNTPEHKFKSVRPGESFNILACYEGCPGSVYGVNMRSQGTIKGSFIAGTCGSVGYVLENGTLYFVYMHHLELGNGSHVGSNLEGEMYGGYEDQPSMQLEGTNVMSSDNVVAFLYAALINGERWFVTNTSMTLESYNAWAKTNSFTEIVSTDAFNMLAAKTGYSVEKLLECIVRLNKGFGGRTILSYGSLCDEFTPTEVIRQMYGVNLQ
readout-name: IC50

Problem: // fetch IC50 given entry CC(C)CC(NC(=O)OCc1ccccc1)C(=O)NC(CC1CCNC1=O)C(O)S(=O)(=O)O (stereo not shown) [GC376, reference compound]
Solution: 130 nM

====

target: FIPV M^pro (Feline coronavirus, UniProt Q98VG9); assay: FRET-based cleavage assay with purified FIPV Mpro (Ki and IC50 determination); format: biochemical, FIPV WSU-79/1146
Give measured IC50 for each item. Keep answers brief.
One number for each entry, in nM.

O=C[C@H](C[C@@H]1CCNC1=O)NC(=O)[C@H](CC1CC1)NC(=O)OCc1ccccc1 [1a]    100
O=C(N[C@@H](CC1CC1)C(=O)N[C@@H](C[C@@H]1CCNC1=O)C(O)S(=O)(=O)O)OCCc1cccc(Cl)c1 (stereo partly shown) [2d]    50
COc1cccc2[nH]c(C(=O)N[C@@H](CC3CC3)C(=O)N[C@@H](C[C@@H]3CCNC3=O)C(O)S(=O)(=O)O)cc12 (stereo partly shown) [2e]    60

State the recorded IC50 for every item in the following list.
1. CC(C)C[C@H](NC(=O)O[C@@H](C)c1ccccc1)C(=O)N[C@H](C=O)C[C@@H]1CCNC1=O [1g]
2. CC(C)C[C@H](NC(=O)OCCc1cccc(Cl)c1)C(=O)N[C@H](C=O)C[C@@H]1CCNC1=O [1e]
3. O=C(N[C@@H](CC1CC1)C(=O)N[C@@H](C[C@@H]1CCNC1=O)C(O)S(=O)(=O)O)OCc1cccc(F)c1 (stereo partly shown) [2c]
4. CC(C)C[C@H](NC(=O)OCc1cccc(F)c1)C(=O)N[C@H](C=O)C[C@@H]1CCNC1=O [1d]

Solution:
[430, 130, 30, 70]

FYI, the data here is from paper PMC8907848.
